Test system: L1210 leukemia ip in BDF1 mice, survival T/C
ASSAY COMMENT: NCI In Vivo Anticancer Drug Screen. Data for tumor model L1210 Leukemia (intraperitoneal) in B6D2F1 (BDF1) mice
CONDITIONS USED: endpoint: mean survival time; dose: 12.5 mg/kg/injection; schedule: Q04DX003 (ip); vehicle: Klucel (hydroxypropylcellulose) (HPC); higher = longer survival
Inconclusive results and toxic doses are left out.
MEASURED ATTRIBUTE: T/C

- MOLECULE: "Cc1ccc(/C=C/[N+](=O)[O-])cc1"
  RESULT: "97 % of control"
- MOLECULE: "Cc1ccc(S(=O)(=O)N(Cl)Cl)cc1"
  RESULT: "98 % of control"
- MOLECULE: "C=CCc1cc(CN(CCOCC)Cc2cc(CC=C)cc(OC)c2O)c(O)c(OC)c1"
  RESULT: "97 % of control"
- MOLECULE: "N#C/C(=C\\C=C\\c1ccccc1)C(=O)O"
  RESULT: "96 % of control"
- MOLECULE: "Nc1ccc(-c2ccc(NC(=O)C(=O)O)cc2)cc1"
  RESULT: "101 % of control"
- MOLECULE: "C[N+](C)(C)CSc1ccccc1-n1cccc1"
  RESULT: "103 % of control"
- MOLECULE: "CC(C)(C)OC1C2C=CC1C=C2 (configuration not stated)"
  RESULT: "93 % of control"

---

Each entry below lists one item and its recorded T/C value.
Test system: L1210 leukemia ip in BDF1 mice, survival T/C
ASSAY COMMENT: NCI In Vivo Anticancer Drug Screen. Data for tumor model L1210 Leukemia (intraperitoneal) in B6D2F1 (BDF1) mice
CONDITIONS USED: endpoint: mean survival time; dose: 12.5 mg/kg/injection; schedule: Q01DX009 (ip); vehicle: other; higher = longer survival
Inconclusive results and toxic doses are left out.

- COMPOUND STRUCTURE STRING: "O=C(CBr)c1cc2ncccc2c2ccccc12"
  T/C: "90 % of control"
- COMPOUND STRUCTURE STRING: "CC(=O)O[C@@]1(C)[C@@H](C)C(=O)O[C@@H]2CCN3CC=C(COC(=O)[C@]1(C)O)[C@H]23"
  T/C: "94 % of control"
- COMPOUND STRUCTURE STRING: "O=[N+]([O-])c1ccc(CBr)cc1"
  T/C: "95 % of control"
- COMPOUND STRUCTURE STRING: "O=S1(=O)C(c2ccccc2)=C1c1ccccc1"
  T/C: "95 % of control"

---

System: L1210 leukemia ip in BDF1 mice, survival T/C
ASSAY COMMENT: NCI In Vivo Anticancer Drug Screen. Data for tumor model L1210 Leukemia (intraperitoneal) in B6D2F1 (BDF1) mice
CONDITIONS USED: endpoint: mean survival time; dose: 100.0 mg/kg/injection; schedule: Q04DX002 (ip); vehicle: saline; higher = longer survival
Toxic doses and inconclusive results are not listed.
MEASURED ATTRIBUTE: T/C

- COMPOUND: "CCCC(=O)N1CC(C)OC(C)C1 (centres undefined)"
  SYSTEM NAME: "L1210 leukemia ip in BDF1 mice, survival T/C"
  MEASURED ATTRIBUTE: "T/C"
  RESULT: "109 % of control"
- COMPOUND: "CCCC/C(CC)=N\\N=C(/CC)CCCC"
  SYSTEM NAME: "L1210 leukemia ip in BDF1 mice, survival T/C"
  MEASURED ATTRIBUTE: "T/C"
  RESULT: "102 % of control"
- COMPOUND: "COC1(NC(=O)CCCC(N)C(=O)O)C(=O)N2C(C(=O)O)=C(COC(N)=O)CSC21 (centres undefined)"
  SYSTEM NAME: "L1210 leukemia ip in BDF1 mice, survival T/C"
  MEASURED ATTRIBUTE: "T/C"
  RESULT: "103 % of control"
- COMPOUND: "NC(=O)N1CCCCN1C(N)=O"
  SYSTEM NAME: "L1210 leukemia ip in BDF1 mice, survival T/C"
  MEASURED ATTRIBUTE: "T/C"
  RESULT: "99 % of control"
- COMPOUND: "C#CCOCCC#N"
  SYSTEM NAME: "L1210 leukemia ip in BDF1 mice, survival T/C"
  MEASURED ATTRIBUTE: "T/C"
  RESULT: "101 % of control"
- COMPOUND: "CC(N)C(=O)NC(C)C(=O)O (centres undefined)"
  SYSTEM NAME: "L1210 leukemia ip in BDF1 mice, survival T/C"
  MEASURED ATTRIBUTE: "T/C"
  RESULT: "102 % of control"
- COMPOUND: "CC(N)C(=O)NC(CC(=O)O)C(=O)O (centres undefined)"
  SYSTEM NAME: "L1210 leukemia ip in BDF1 mice, survival T/C"
  MEASURED ATTRIBUTE: "T/C"
  RESULT: "94 % of control"
- COMPOUND: "CCCC(C)OS(=O)(=O)c1ccc([N+](=O)[O-])cc1 (centres undefined)"
  SYSTEM NAME: "L1210 leukemia ip in BDF1 mice, survival T/C"
  MEASURED ATTRIBUTE: "T/C"
  RESULT: "101 % of control"
- COMPOUND: "FC(F)(F)c1nnnn1Cc1ccccc1"
  SYSTEM NAME: "L1210 leukemia ip in BDF1 mice, survival T/C"
  MEASURED ATTRIBUTE: "T/C"
  RESULT: "101 % of control"

---

System: L1210 leukemia ip in BDF1 mice, survival T/C
ASSAY COMMENT: NCI In Vivo Anticancer Drug Screen. Data for tumor model L1210 Leukemia (intraperitoneal) in B6D2F1 (BDF1) mice
CONDITIONS USED: endpoint: mean survival time; dose: 100.0 mg/kg/injection; schedule: Q01DX005 (ip); vehicle: saline; higher = longer survival
Inconclusive results and toxic doses are left out.
Entries and their T/C

- COMPOUND: "Nn1cnc2c(ncn2C2OC(CO)C(O)C2O)c1=O (stereo unspecified)"
  T/C: "88 % of control"
- COMPOUND: "c1coc(-c2ncc3cnccn23)c1"
  T/C: "108 % of control"
- COMPOUND: "CCOC(=O)/C=C(\\C#N)CC(=O)OCC"
  T/C: "102 % of control"
- COMPOUND: "C#CCNc1ncnc2c1ncn2C1OC(CO)C(O)C1O (stereo unspecified)"
  T/C: "101 % of control"
- COMPOUND: "CCOC(=O)CNCc1cccc(Br)c1"
  T/C: "112 % of control"
- COMPOUND: "Nc1ccn(C2OC(CO)C(O)C2O)c(=NC(CO)C(=O)O)n1 (stereo unspecified)"
  T/C: "117 % of control"

---

The following compounds are shown together with reported T/C values.
Test system: L1210 leukemia ip in BDF1 mice, survival T/C
ASSAY COMMENT: NCI In Vivo Anticancer Drug Screen. Data for tumor model L1210 Leukemia (intraperitoneal) in B6D2F1 (BDF1) mice
CONDITIONS USED: endpoint: mean survival time; dose: 50.0 mg/kg/injection; schedule: Q04DX002 (ip); vehicle: saline; higher = longer survival
Inconclusive results and toxic doses are left out.

- COMPOUND: "CCCC/C(CC)=N\\N=C(/CC)CCCC"
  T/C: "91 % of control"
- COMPOUND: "CCN(CC)CCOC(=O)C(O)(c1ccccc1)c1ccccc1"
  T/C: "93 % of control"
- COMPOUND: "NC(CSS(=O)(=O)O)=NC1CC2CCC1C2 (stereo unspecified)"
  T/C: "117 % of control"
- COMPOUND: "CC(N)C(=O)NC(C)C(=O)O (stereo unspecified)"
  T/C: "96 % of control"
- COMPOUND: "CN(C)CCOC(=O)c1cccc(CCl)c1"
  T/C: "98 % of control"
- COMPOUND: "FC(F)(F)c1nnnn1Cc1ccccc1"
  T/C: "93 % of control"

---

System: L1210 leukemia ip in BDF1 mice, survival T/C
ASSAY COMMENT: NCI In Vivo Anticancer Drug Screen. Data for tumor model L1210 Leukemia (intraperitoneal) in B6D2F1 (BDF1) mice
CONDITIONS USED: endpoint: mean survival time; dose: 50.0 mg/kg/injection; schedule: Q01DX001 (ip); vehicle: saline with Tween-80; higher = longer survival
Inconclusive results and toxic doses are left out.

- COMPOUND: "OC1CCCC23CCC12CC3 (centres undefined)"
  T/C: "101 % of control"
- COMPOUND: "COc1cccc(CC#N)c1"
  T/C: "97 % of control"
- COMPOUND: "O=S(NOCCCCONS(=O)c1ccccc1)c1ccccc1 (centres undefined)"
  T/C: "95 % of control"
- COMPOUND: "Cc1cccc(Nc2c3ccccc3nc3ccccc23)c1"
  T/C: "100 % of control"

These data points were gathered from PubChem BioAssay AID248.
